The values you see were collected from ChEMBL document CHEMBL5360649.

Assay: Stability in human serum assessed as intact peptide remaining at 1 mM measured after 24 hrs by HPLC analysis
Format: ADME, cell-free
Settings: read-out: Stability
PROPERTY MEASURED: remaining at 24 h, 1000 µM (%)
Answer in %, number only, no unit symbol.

Could you share which remaining at 24 h, 1000 µM value was measured for H-FLPIIKWVKKFFWRWR-OH ?
47.1

----------
Experiment: Stability in human serum assessed as intact peptide remaining at 1 mM measured after 8 hrs by HPLC analysis
Format: ADME, cell-free
Conditions: read-out: Stability
PROPERTY MEASURED: remaining at 8 h, 1000 µM (%)
Answer in %, number only, no unit symbol.

Could you share which remaining at 8 h, 1000 µM value was measured for H-FLPIIKWVKKFFWRWR-OH ?
61

----------
Assay: Hemolytic activity in human RBC assessed as hemolysis at 25 uM incubated for 30 mins under shaking condition by multiplate reader analysis relative to control
Format: toxicity, cell-based, Erythrocyte
Settings: human red blood cells (RBC), read-out: Activity
PROPERTY MEASURED: hemolysis at 0.5 h, 25 µM (%)
Answer in %, number only, no unit symbol.

Could you share which hemolysis at 0.5 h, 25 µM value was measured for H-FLPIIKWVKKFFWRWR-OH ?
20.4

----------
Assay: Cytotoxicity against NMDF cells assessed as viable cells at 12.5 uM incubated for 24 hrs by MTT assay relative to control
Assay type: toxicity, cell-based
Details: mouse, read-out: Activity
PROPERTY MEASURED: viability at 24 h, 12.5 µM

Could you share which viability at 24 h, 12.5 µM value was measured for H-FLPIIKWVKKFFWRWR-OH ?
> 85%

----------
Assay: Cytotoxicity against human A549 cells assessed as cell viability at 12.5 uM incubated for 24 hrs by MTT assay relative to control
Type: toxicity, cell-based
Details: read-out: Activity
PROPERTY MEASURED: viability at 24 h, 12.5 µM
Numeric answer plus unit only.

Could you share which viability at 24 h, 12.5 µM value was measured for H-FLPIIKWVKKFFWRWR-OH ?
74.3%

----------
Test: Cytotoxicity against human WI-38 cells assessed as cell viability at 12.5 uM incubated for 24 hrs by MTT assay relative to control
Assay type: toxicity, cell-based
Details: read-out: Activity
PROPERTY MEASURED: viability at 24 h, 12.5 µM (%)
Answer in %, number only, no unit symbol.

Could you share which viability at 24 h, 12.5 µM value was measured for H-FLPIIKWVKKFFWRWR-OH ?
91.5

----------
Test: Cytotoxicity against human MCF7 cells assessed as cell viability at 25 uM incubated for 24 hrs by MTT assay relative to control
Type: toxicity, cell-based
Settings: read-out: Activity
PROPERTY MEASURED: viability at 24 h, 25 µM (%)
Answer in %, number only, no unit symbol.

Could you share which viability at 24 h, 25 µM value was measured for H-FLPIIKWVKKFFWRWR-OH ?
63.8

----------
Test: Stability in human serum assessed as intact peptide remaining at 1 mM measured after 12 hrs by HPLC analysis
Type: ADME, cell-free
Conditions: read-out: Stability
PROPERTY MEASURED: remaining at 12 h, 1000 µM (%)
Answer in %, number only, no unit symbol.

Could you share which remaining at 12 h, 1000 µM value was measured for H-FLPIIKWVKKFFWRWR-OH ?
54.5
